- MEASURED TARGET: T1, huMAGEB2(1-319), biotinylated full length MAGEB2 protein (human, UniProt O15479 1-319, biotinylated with recombinant BirA (site not stated))
- T1 construct: Expressed in E. coli from pET23; N-terminal 6xHis tag removed with caspase 3; also called Biotinylated MAGEB2 full length protein
- T1 sequence: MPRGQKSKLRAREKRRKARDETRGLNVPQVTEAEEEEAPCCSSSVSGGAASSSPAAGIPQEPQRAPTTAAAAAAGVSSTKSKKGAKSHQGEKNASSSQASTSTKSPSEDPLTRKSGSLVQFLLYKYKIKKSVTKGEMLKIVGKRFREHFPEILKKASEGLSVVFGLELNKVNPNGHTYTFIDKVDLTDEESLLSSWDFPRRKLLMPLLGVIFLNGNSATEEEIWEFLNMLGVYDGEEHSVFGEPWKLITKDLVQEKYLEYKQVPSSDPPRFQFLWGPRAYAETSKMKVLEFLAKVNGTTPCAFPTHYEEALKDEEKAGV
- RUN DESCRIPTION: limited antigen FACS; biotinylated full length MAGEB2 on LumAvidin beads; B-cell supernatant
QUANTITY: binding result

BINDER: 7B20 (antibody, IgG1, V domains shown, Rabbit monoclonal IgG1) VH: QSLEESGGGLVKPGASLTLTCKASGSDLSSAYYICWIRQAPGKGLEWVACIGGVNRVATAYATWAKGRFTISKTSSTTVTLQMTSLTAADTATYFCVRGGPDNNVQFNLWGPGTLVTVSS VL: AQVLTQTPASVSAAVGGTVTISCQSSQSVYSSDLLSWYQQKPGQPPKLLIYKASTLASGVPSRFKGSGSGTQFTLTISELQCDDAATYYCQGYYSGVVYIFGGGTEVVVK
QUANTITY: binding result
RESULT: binds
//
BINDER: 1D2 (antibody, IgG1, V domains shown, Rabbit monoclonal IgG1) VH: QSLEESGGGLVQPEGSLTLTCTASGFTLNNYYICWVRQAPGKGLEWIACIDNVNGRTYYASWAKGRFTISRTSSTTVTLQMTSLTAADTATYFCARSLSTPLWGPGTLVTVSS VL: DIVMTQTPFSVEAAVGGTVTIKCQASQSISSYLSWYQQKPGQPPKLLIYRASPLASGVPSRFKGSGSGTQFTLTISDLECADAATYYCQSYDDSSSNNFFYGFGGGTEVVVR
QUANTITY: binding result
RESULT: binds
//
BINDER: 1J16 (antibody, IgG1, V domains shown, Rabbit monoclonal IgG1) VH: QSLEESGGGLVQPEGSLTVTCTAFGVTLTNYYICWVRQAPGKGLEWIGCIDNINGRTYYASWAKGRFTISKTSSTTGTLQMTSLTAADTATYFCARSLATPLWGPGTLVTVSS VL: DIVMTQTPASVEAAVGGTVTIKCQASQSISSYLAWYHQKPGQPPKLLIYAASTLASGVPSRFEGSGSGTQFTLTISDLECADAATYYCQSYDDSRSSSFFYAFGGGTEVVVK
QUANTITY: binding result
RESULT: binds
